Data origin: ChEMBL document CHEMBL2218924

molecular target: Cyclin-dependent kinase 2/cyclin E (Homo sapiens) (UniProt P24864+P24941+O96020); conditions: at 10 µM
Measured Parameter: residual activity
Remember to follow the number with its unit.

Challenge: Give the measured residual activity of "O=C(c1cc2cc(O)ccc2[nH]1)c1cc2cc(O)ccc2[nH]1" .
Response given: 13%

Challenge: Give the measured residual activity of "COc1cc2c(cc1OC)-c1n[nH]c(Nc3cccc(F)c3)c1C2" .
Response given: 68%

Challenge: Give the measured residual activity of "CC(C)(C)n1nc(Cc2cccc3ccccc23)c2c(N)ncnc21" .
Response given: 69%

Challenge: Give the measured residual activity of "CC(C)c1nn(-c2c(Cl)cccc2Cl)c2nc(Cc3ccc(OCCO)cc3)[nH]c(=O)c12" .
Response given: -3%

Challenge: Give the measured residual activity of "O=C1Nc2ccc(Cl)cc2/C1=C/c1cc(Cl)c(O)c(Cl)c1" .
Response given: 97%

Challenge: Give the measured residual activity of CSc1nc(-c2ccc(F)cc2)c(-c2ccnc(NC(C)c3ccccc3)c2)[nH]1 (stereo not given) .
Response given: 86%

Challenge: Give the measured residual activity of "CCN(CC)CCNC(=O)c1c(C)[nH]c(/C=C2\C(=O)Nc3ccc(Cl)cc32)c1C" .
Response given: 65%

* * *

molecular target: Ephrin type-B receptor 2 (Homo sapiens); conditions: at 1 µM
residual activity reference
Provide only the numeric value, understood in %.

Check out these entries, answers already filled in.
- Smiles Input: "O=C(Nc1nc2ccccc2n1CCN1CCOCC1)c1cccc([N+](=O)[O-])c1"
  residual activity (%): 113
- Smiles Input: "O=C(CCCc1ccc(-c2ccccc2F)cc1)Nc1ccc(O)cc1"
  residual activity (%): 107

Challenge: Give the measured residual activity of "O=C1NC(=O)C(c2cn(CCCn3ccnc3)c3ccccc23)=C1Nc1ccccc1" .
Response given: 115

Challenge: Give the measured residual activity of "COc1ccc(COc2ccc(Cc3cnc(N)nc3N)cc2OC)cc1" .
Response given: 108

Challenge: Give the measured residual activity of "COc1ccc(CNC(=O)Nc2ncc([N+](=O)[O-])s2)cc1" .
Response given: 105

* * *

biological target: Serine/threonine-protein kinase 4 (Homo sapiens); conditions: at 10 µM
Measured Parameter: residual activity (%)
Provide only the numeric value, understood in %.

Check out these entries, answers already filled in.
- Smiles Input: "CCN(CC)CCNC(=O)c1c(C)[nH]c(/C=C2\\C(=O)Nc3ccc(Cl)cc32)c1C"
  Target Entity: "Serine/threonine-protein kinase 4 (Homo sapiens)"
  Recorded Result: 5
- Smiles Input: "COc1cc2c(cc1OC)-c1n[nH]c(Nc3cccc(F)c3)c1C2"
  Target Entity: "Serine/threonine-protein kinase 4 (Homo sapiens)"
  Recorded Result: 73
- Smiles Input: "O=C(c1ccccc1)c1ccc(N2CCOCC2)cc1O"
  Target Entity: "Serine/threonine-protein kinase 4 (Homo sapiens)"
  Recorded Result: 116
- Smiles Input: "COc1ccc2c(c1)c(C1=C(c3c[nH]c4ccccc34)C(=O)NC1=O)cn2CCCN(C)C"
  Target Entity: "Serine/threonine-protein kinase 4 (Homo sapiens)"
  Recorded Result: 25
- Smiles Input: "CC(C)N(CCC(=O)c1ccc2ccccc2c1)Cc1ccccc1"
  Target Entity: "Serine/threonine-protein kinase 4 (Homo sapiens)"
  Recorded Result: 84

Note: attention shifts to another entry.
Challenge: Give the measured residual activity of "COc1ccc(Cl)cc1NC(=O)Nc1cc(C)nc2ccccc12" .
Response given: 79
